target: human µ opiate receptor (human)
assay.protocol: displacement of [3H]DAMGO from COS cells expressing hµOR1; 'low affinities of less than 100 nM' is read as weaker than 100 nM
recorded.metric: Kd

>>> df
                                     binder  result_value
0  YXGFX (D-penicillamine at 2 and at 5 (written X)) [DPDPE (D-pen^2, D-pen^5 enkephalin)]      > 100 nM
